Measured On: Carbonic anhydrase 2 (Homo sapiens)
pKi: −log10 of the molar value.
// label = True if pKi is not less than 6, otherwise False

Data request: Entry O=C(O)c1ccc2c(c1)B(O)OC2 : is its pKi no less than 6?
Data returned: True

Data request: Exam item: decide whether the reported pKi for OB1OCc2ccc(/N=C/c3ccc(/C=N/c4ccc5c(c4)B(O)OC5)s3)cc21 is at least 6.
Data returned: False

Data request: Tell me whether pKi is at least 6 here: O=C(/C=C/C=C/C(=O)Nc1ccc2c(c1)B(O)OC2)Nc1ccc2c(c1)B(O)OC2
Data returned: False

Data request: Has O=C(CCC(=O)Nc1ccc2c(c1)B(O)OC2)Nc1ccc2c(c1)B(O)OC2 a recorded pKi greater than or equal to 6?
Data returned: True

Data request: Assess whether reported pKi for O=C(Nc1ccc2c(c1)B(O)OC2)c1cc(C(=O)Nc2ccc3c(c2)B(O)OC3)cc(C(=O)Nc2ccc3c(c2)B(O)OC3)c1 sits at 6 or higher.
Data returned: False

Data request: API: above_or_equal(metric=pKi, cutoff=6) for item O=C(/C=C/C(=O)Nc1ccc2c(c1)B(O)OC2)Nc1ccc2c(c1)B(O)OC2
Data returned: False

###

Measured On: Carbonic anhydrase 4 (Homo sapiens)
Sequence (P22748 whole entry): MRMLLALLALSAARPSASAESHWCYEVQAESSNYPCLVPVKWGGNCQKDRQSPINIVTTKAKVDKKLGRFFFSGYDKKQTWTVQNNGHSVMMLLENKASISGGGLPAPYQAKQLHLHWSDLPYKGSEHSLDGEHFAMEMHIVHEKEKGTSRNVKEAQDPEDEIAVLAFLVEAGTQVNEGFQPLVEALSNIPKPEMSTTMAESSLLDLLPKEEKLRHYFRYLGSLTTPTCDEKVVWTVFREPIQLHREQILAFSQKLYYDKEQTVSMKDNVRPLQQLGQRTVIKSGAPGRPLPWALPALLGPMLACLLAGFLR
Measurement Label: Ki

Data request: Look up Carbonic anhydrase 4 (Homo sapiens) data: Ki of O=C(Nc1ccc2c(c1)B(O)OC2)c1cc(C(=O)Nc2ccc3c(c2)B(O)OC3)cc(C(=O)Nc2ccc3c(c2)B(O)OC3)c1 , then report it.
Data returned: > 100 µM

###

log10 Ki values recorded for Carbonic anhydrase 9 (Homo sapiens, UniProt Q16790)
Recall that a logarithmic scale is used here: each number is log10 of Ki in nM.

Data request: Kindly indicate its recorded log10 Ki. Item: CC(C)(C)OC(=O)N[C@@H](CC(=O)Nc1ccc2c(c1)B(O)OC2)C(=O)Nc1ccc2c(c1)B(O)OC2
Data returned: 2.45

Data request: Tell me measured log10 Ki for O=C(CCCCC(=O)Nc1ccc2c(c1)B(O)OC2)Nc1ccc2c(c1)B(O)OC2 please.
Data returned: 2.49

Data request: For the molecule O=C(CCC(=O)Nc1ccc2c(c1)B(O)OC2)Nc1ccc2c(c1)B(O)OC2 , give its measured log10 Ki value.
Data returned: 2.83

Data request: State, in one line, measured log10 Ki of O=C(CC(=O)Nc1ccc2c(c1)B(O)OC2)Nc1ccc2c(c1)B(O)OC2
Data returned: 2.20

Data request: Look up log10 Ki of O=C(CC[C@H](NC(=O)OCc1ccccc1)C(=O)Nc1ccc2c(c1)B(O)OC2)Nc1ccc2c(c1)B(O)OC2 and report it.
Data returned: 1.81

Data request: // fetch log10 Ki given entry O=C(Nc1ccc2c(c1)B(O)OC2)c1cc(C(=O)Nc2ccc3c(c2)B(O)OC3)cc(C(=O)Nc2ccc3c(c2)B(O)OC3)c1
Data returned: 3.94

Data request: Please report the measured log10 Ki for O=C(/C=C/C=C/C(=O)Nc1ccc2c(c1)B(O)OC2)Nc1ccc2c(c1)B(O)OC2
Data returned: 3.69

###

Measured On: Carbonic anhydrase 1 (Homo sapiens, UniProt P00915)
Sequence (P00915 whole entry): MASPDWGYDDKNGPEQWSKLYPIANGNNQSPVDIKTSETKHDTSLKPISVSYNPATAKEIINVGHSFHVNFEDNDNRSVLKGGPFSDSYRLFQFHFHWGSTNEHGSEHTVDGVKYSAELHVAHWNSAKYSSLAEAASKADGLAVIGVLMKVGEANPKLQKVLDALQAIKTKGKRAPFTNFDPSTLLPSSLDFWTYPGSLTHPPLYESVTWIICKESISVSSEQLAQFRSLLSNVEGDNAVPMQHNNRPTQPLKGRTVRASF
Measurement Label: pKi
Please note pKi is a logarithmic value: minus log10 of concentration in mol/L. Answer with that number alone.

Data request: State its pKi for this compound: O=C(CCCCC(=O)Nc1ccc2c(c1)B(O)OC2)Nc1ccc2c(c1)B(O)OC2
Data returned: 5.78

Data request: Supply pKi value. Item: O=C(O)c1ccc2c(c1)B(O)OC2
Data returned: 6.07

Data request: Quickly give me recorded pKi for O=C(/C=C/C=C/C(=O)Nc1ccc2c(c1)B(O)OC2)Nc1ccc2c(c1)B(O)OC2
Data returned: 5.48

Data request: Check the records and state pKi for O=C(C/C=C/CC(=O)Nc1ccc2c(c1)B(O)OC2)Nc1ccc2c(c1)B(O)OC2
Data returned: 5.61

Data request: Fill in reported pKi for this entry: O=C(/C=C/C(=O)Nc1ccc2c(c1)B(O)OC2)Nc1ccc2c(c1)B(O)OC2
Data returned: 5.49
